# Measurement Description: soluble on expression in E. coli; label from the status in PepcDB or PDB records
Property: soluble on expression in E. coli

>>> meas_value("PQQSTWQMATNTPLECRLVHPIPNYGDAEFSSRAGKKINLDFELKMRRPMGDTRNVSLVSMPPVWRPGEGADRITNLQFFKQFDGYIGGQTAWSLLSELEKGRYPTFSYQDWQSRDQRIEVALSSVLFQQPYNEFSDCISKLLPYS")
"not soluble"
>>> meas_value("MSLTDPNRLTLFYSPQTRATGMRVLLEELGAPYDLHVLNMKAGEQRQPAYLAINPLGKVPAIRRGDALVTEQVAITIYLADLFPGAGLAPSLDDPLRGPYLRWIAYYGSTFEPAVVDRSMQREPGPAEMSPYADYDTMLGALEAQLATGPYLLGDRFTAADVLWGIALNWTLNFGLVPKKDAFVRYAELVTARPAFRRVDLADAEMAAEGHHHHHH")
"soluble"
>>> meas_value("MGSDKIHHHHHHMFMKNLYIDPDITKASTISSEFYTSTEWFEITKEKIFSKTWQFCISTEELTTNRQLIPFTLLPGYLEEPLLFAKDELGTIRCLSNVCTHRGKILIEEPCVAHKIKCSYHGRRFNFCGELLHMPEFELTKDFPSNNDNLSQISTGILEPFLFASLSPVVPFHEVFAEIKERLFWLPMEKMRLDKEKCKDYVVKSHWALYCENYLEALHIPFVHPSLRKVIDCNTYTTELFRYCNLQLALASPDEVSFDLPKGAQDYGKQVAAYYFWIFPNTMLNFYPWGCSVNVVKPLSPELTQVSFLSFVLDESKFGKGAGGALDQVEQEDERVVESVQRGIKSRYYDIGRFSPTKEQGTHHFQRLLCEFLND")
"not soluble"
>>> meas_value("MAHHHHHHMGFLDGKRILLTGLLSNRSIAYGIAKACKREGAELAFTYVGDRFKDRITEFAAEFGSELVFPCDVADDAQIDALFASLKTHWDSLDGLVHSIGFAPREAIAGDFLDGLTRENFRIAHDISAYSFPALAKAALPMLSDDASLLTLSYLGAERAIPNYNTMGLAKAALEASVRYLAVSLGAKGVRVNAISAGPIKTLAASGIKSFGKILDFVESNSPLKRNVTIEQVGNAGAFLLSDLASGVTAEVMHVDSGFNAVVGGMAGLEE")
"soluble"
>>> meas_value("IDIKDVELTADNGKPVYATFFCPKEEIKAAVVIAPALGVDKIFYQDFALWLASYGYLVTTFDYSSMGSADKVHYKESDTTITDWAVFDCKKILEQVSIEIKDKD")
"not soluble"

Answer with the recorded soluble on expression in E. coli for the sequence listed here: "MTNRQWETLREYDEIKYEFYEGIAKVTINRPEVRNAFTPKTVAEMIDAFSRARDDQNVSVIVLTGEGDLAFCSGGDQKKRGHGGYVGEDQIPRLNVLDLQRLIRIIPKPVIAMVKGYAVGGGNVLNVVCDLTIAADNAIFGQTGPKVGSFDAGYGSGYLARIVGHKKAREIWYLCRQYNAQEALDMGLVNTVVPLEKVEDETVQWCKEIMKHSPTALRFLKAAMNADTDGLAGLQQMAGDATLLYYTTDEAKEGRDAFKEKRDPDFDQFPKFP"
soluble
